Target: Probable G-protein coupled receptor 34 (Mus musculus) (UniProt Q9R1K6)
Sequence (Q9R1K6 whole entry, the tested form may be a part): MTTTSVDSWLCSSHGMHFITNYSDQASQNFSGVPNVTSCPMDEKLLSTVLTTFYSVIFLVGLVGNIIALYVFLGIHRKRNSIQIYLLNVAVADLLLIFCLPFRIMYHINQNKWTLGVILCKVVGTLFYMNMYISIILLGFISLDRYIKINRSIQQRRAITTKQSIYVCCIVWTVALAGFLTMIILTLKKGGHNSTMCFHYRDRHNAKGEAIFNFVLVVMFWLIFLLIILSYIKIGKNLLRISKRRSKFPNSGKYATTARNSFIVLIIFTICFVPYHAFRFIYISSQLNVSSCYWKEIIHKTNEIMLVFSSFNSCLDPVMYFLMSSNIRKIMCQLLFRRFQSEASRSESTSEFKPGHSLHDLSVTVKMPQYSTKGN
Assay: Agonist activity at mouse GPR34 expressed in HEK293 cells co-transfected with AP-TGFalpha/chimeric Galphaq/i1 assessed as induction of ectodomain shedding of membrane bound AP-TGFalpha after 1 hr relative to control
Type: cell-based
# Met = Emax below 20% (exclusive); Not met = Emax at/above 20%

Quick check: Emax of `Nc1ccc(Oc2cccc(COc3ccccc3CCC(=O)OCCCOP(=O)(O)OC[C@H](N)C(=O)O)c2)cc1` under 20%?
Not met

Quick check: Emax of `N#Cc1ccc(Oc2cccc(COc3ccccc3CCC(=O)OCCCOP(=O)(O)OC[C@H](N)C(=O)O)c2)cc1` under 20%?
Met

Quick check: Emax of `CCCCCCOc1ccc(-c2ccc(Oc3cccc(COc4ccccc4CCC(=O)OCCCOP(=O)(O)OC[C@H](N)C(=O)O)c3)cc2)cc1` under 20%?
Met

Quick check: Emax of `N[C@@H](COP(=O)(O)OCCCOC(=O)CCc1ccccc1OCc1cccc(Oc2ccc(-c3ccc(-c4ccccc4)cc3)cc2)c1)C(=O)O` under 20%?
Met

Quick check: Emax of `Cc1ccccc1-c1ccc(Oc2cccc(COc3ccccc3CCC(=O)OCCCOP(=O)(O)OC[C@H](N)C(=O)O)c2)cc1` under 20%?
Met

Quick check: Emax of `N[C@@H](COP(=O)(O)OCCCOC(=O)CCc1ccccc1OCc1cccc(Oc2ccc(Br)cc2)c1)C(=O)O` under 20%?
Met

Quick check: Emax of `Cc1cccc(Oc2cccc(COc3ccccc3CCC(=O)OCCCOP(=O)(O)OC[C@H](N)C(=O)O)c2)c1` under 20%?
Not met

Quick check: Emax of `Cc1ccc(Oc2cccc(COc3ccccc3CCC(=O)OCCCOP(=O)(O)OC[C@H](N)C(=O)O)c2)cc1` under 20%?
Met

Quick check: Emax of `N[C@@H](COP(=O)(O)OCCCOC(=O)CCc1ccccc1OCc1cccc(Oc2ccccc2)c1)C(=O)O` under 20%?
Met

Quick check: Emax of `N[C@@H](COP(=O)(O)OCCCOC(=O)CCc1ccccc1OCc1cccc(Oc2ccc(Cl)c(Cl)c2)c1)C(=O)O` under 20%?
Met

Quick check: Emax of `N[C@@H](COP(=O)(O)O[C@@H]1CCCO[C@@H]1COC(=O)CCc1ccccc1OCc1cccc(Oc2ccccc2)c1)C(=O)O` under 20%?
Not met

Quick check: Emax of `N[C@@H](COP(=O)(O)OCCCOC(=O)CCc1ccccc1OCCCCOc1ccccc1)C(=O)O` under 20%?
Met
